Test system: Saccharomyces cerevisiae
Experiment: protein stability index of tFT-peptide fusion in deletion strain of DOA10 (PSI (0-1 scale)); higher = more stable (slower turnover)
Would you mind telling me the reported protein stability index of each entry?

[in] # assay system Saccharomyces cerevisiae: give protein stability index of "AITAPMCPLLLR"
[out] 0.66

[in] Return reported protein stability index for target or system Saccharomyces cerevisiae, item "GSYMCSVGCWFR" .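 Also: PSI per variant is the weighted mean of its sequencing read distribution over the sorted stability bins, counting only variants with over 10 reads summed across bins.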
[out] 0.678

[in] Identify measured protein stability index obtained with Saccharomyces cerevisiae for "AITEPMCPLLLR" .
[out] 0.648

[in] GET protein stability index where system = Saccharomyces cerevisiae and item = "CLVSLPPLLFFR"
[out] 0.661

[in] Please report protein stability index with Saccharomyces cerevisiae for item "RVTRLDAIYFII" .
[out] 0.111

[in] State protein stability index (Saccharomyces cerevisiae) of "RVTRLSAIYFRI" .
[out] 0.458

[in] Send back Saccharomyces cerevisiae protein stability index of "CLVSLPILLFFL" only.
[out] 0.45
